test.system: EED (1-441)-His protein (Homo sapiens, UniProt O75530)
Construct: 30 nM EED (1-441)-His protein
Sequence (O75530 whole entry): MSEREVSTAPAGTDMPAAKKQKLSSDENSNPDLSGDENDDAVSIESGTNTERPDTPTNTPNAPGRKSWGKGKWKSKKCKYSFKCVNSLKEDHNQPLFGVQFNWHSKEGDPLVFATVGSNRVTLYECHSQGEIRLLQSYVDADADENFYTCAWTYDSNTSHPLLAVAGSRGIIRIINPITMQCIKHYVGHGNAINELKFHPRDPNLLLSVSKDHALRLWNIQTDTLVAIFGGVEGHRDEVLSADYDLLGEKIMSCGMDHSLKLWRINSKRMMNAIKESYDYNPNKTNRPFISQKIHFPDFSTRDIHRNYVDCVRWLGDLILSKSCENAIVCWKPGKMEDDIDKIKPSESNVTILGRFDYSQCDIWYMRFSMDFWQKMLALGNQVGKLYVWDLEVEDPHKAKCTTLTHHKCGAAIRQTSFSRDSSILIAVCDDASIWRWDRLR
assay.method.text: EED-H3K27Me3 peptide competition binding assay by AlphaScreen
condition.context: EED-H3K27Me3 peptide competition, AlphaScreen; read-out: (a) IC50 EED Alphascreen binding Qualified
reported.property: IC50 (nM)

Use the examples below as a reference point.
COc1cccc(F)c1CNc1ccc(-c2ccc(CNC(C)=O)nc2)c2nncn12 [Example 256]; 25.1
COc1cccc(F)c1CNc1ccc(-c2ccc(S(=O)(=O)C3CCNCC3)nc2)c2nncn12 [Example 179]; 24.8
COc1cc(F)cc(F)c1CNc1ccc(-c2ccnn2C)c2nncn12 [Example 296]; 13

[A] COc1cccc(F)c1CNc1ccc(-c2cc(C)ncc2C)c2nncn12 [Example 305]
[B] COc1cc(F)cc(F)c1CNc1ccc(-c2ccc(C)nc2C(F)F)c2nncn12 [Example 314]
Compare A and B and name the one whose reported IC50 is smaller. Indicate your choice by writing its label. B
(B: 22.3 nM, A: 52.6 nM)
